Origin of measurements: patent US20220112288A1

Each item that follows carries a reported kon.
Target: T1, Rhesus macaque CD4-HIS (Acro Biosystems, Cat. CD4-C52H7) (rhesus macaque, UniProt P16003 26-390)
T1 construct: Bought reagent; also called Rhesus CD4; rhesus CD4-HIS; not shown: His tag
T1 sequence (P16003 26-390 limits assumed): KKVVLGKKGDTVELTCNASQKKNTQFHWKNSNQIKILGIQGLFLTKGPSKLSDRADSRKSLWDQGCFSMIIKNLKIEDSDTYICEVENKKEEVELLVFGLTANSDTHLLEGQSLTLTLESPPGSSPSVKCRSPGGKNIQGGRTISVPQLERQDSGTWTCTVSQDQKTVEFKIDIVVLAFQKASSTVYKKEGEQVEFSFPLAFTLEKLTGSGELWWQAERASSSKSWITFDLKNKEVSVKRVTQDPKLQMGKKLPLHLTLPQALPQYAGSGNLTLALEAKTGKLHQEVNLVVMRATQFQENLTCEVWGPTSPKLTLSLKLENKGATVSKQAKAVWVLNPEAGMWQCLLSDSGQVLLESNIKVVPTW
Assay: BLI Octet, mAb on anti-mouse Fc sensor, rhesus CD4-HIS 25-100 nM, 1:1 global fit;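 further: purified antibodies captured at 10 µg/mL, rhesus CD4 analyte run as a three-concentration serial dilution, irrelevant antibody as reference control, one kinetic constant set per antibody from global fitting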
observation_type: kon (M⁻¹ s⁻¹)

binder="75110_04P08A (antibody, V domains shown, Tested as antibody purified from AlivaMab Mouse hybridoma supernatant (captured by anti-mouse IgG Fc)) VH: QVQLQQWGAGLLKPSETLSLTCAVYGGSLSGYYWSWIRQSPGKGLEWIGEINQSGSTNYNPSLKSRVTISVDTSKDQFSLRLTSVTAADTAVYYCTRVLNWFDPWGRGTLVTVSS VL: DIQMTQSPSSVSASVGDRVTLTCRASQDISNWLAWYQQKPGKAPKLLIYAASSLQSGVPSRFSGSGSGTDFTLTISSLQTEDFATYYCQQANSFPYTFGQGTKLEIK" observation_type=kon numeric_value=150000
binder="75110_03L12A (antibody, V domains shown, Tested as antibody purified from AlivaMab Mouse hybridoma supernatant (captured by anti-mouse IgG Fc)) VH: QVQLQQWGAGLLKPSETLSLTCAVYGGSFSGYYWSWIRQPPGKGLEWIGEINHSGSTNYNPSLKSRVTISVDTSENQFSLTLISVTAADTAVYYCVRLINWFDPWGQGTLVTVSS VL: DIQMTQSPSSVSASVGDRVTITCRASQDISNWLAWYQQKPGKAPKLLIFAASSLQSGVPSRFSGSGSGTDFTLTISSLQPDDFATYYCQQANSFPYTFGQGTNLGIK" observation_type=kon numeric_value=220000
binder="75110_04G16A (antibody, V domains shown, Tested as antibody purified from AlivaMab Mouse hybridoma supernatant (captured by anti-mouse IgG Fc)) VH: QVQLQESGPGLVKPSQTLSLTCTVSGDSISSGYYYWSWIRQHPGKGLEWIGYISYSGSTYYNPSLKSRLTISVNTSKNQFSLKLSSLTAADTAVYYCARDRPSNFDAFDIWGQGTMVTVSS VL: EIVLTQSPGTLSLSPGERATLSCRASQSVGSTYLAWYQQKPGQAPRLLIYGAFSRATGIPDRFSGSGSGTDFTLTISRLEPEDFAVYYCQQYGSSPLTFGPGTKVDIK" observation_type=kon numeric_value=92000
binder="75110_02N15A (antibody, V domains shown, Tested as antibody purified from AlivaMab Mouse hybridoma supernatant (captured by anti-mouse IgG Fc)) VH: EVQLVESGGGLVQPGGSLRLSCAASGFTFSSYWMSWVRQAPGKGLEWVANINEDGNEKYYVDSVKGRFTISRDNAKNSLFLQMNSLRAEDTAVYFCAREGGQWLALDHWGQGALVTVSS VL: DIQMTQSPSSVSASVGDRVTITCRASQGISSWLAWYQQKPGKAPKFLISGASSLQSGVPSRFSGSGSGTDFTLTISSLQPEDFATYYCQQANSFPWTFGQGTKVEFK" observation_type=kon numeric_value=190000
